These data points were gathered from patent US20110105493A1.

# target: human adenosine A2A receptor (Homo sapiens, UniProt P29274)
# Sequence (P29274 whole entry): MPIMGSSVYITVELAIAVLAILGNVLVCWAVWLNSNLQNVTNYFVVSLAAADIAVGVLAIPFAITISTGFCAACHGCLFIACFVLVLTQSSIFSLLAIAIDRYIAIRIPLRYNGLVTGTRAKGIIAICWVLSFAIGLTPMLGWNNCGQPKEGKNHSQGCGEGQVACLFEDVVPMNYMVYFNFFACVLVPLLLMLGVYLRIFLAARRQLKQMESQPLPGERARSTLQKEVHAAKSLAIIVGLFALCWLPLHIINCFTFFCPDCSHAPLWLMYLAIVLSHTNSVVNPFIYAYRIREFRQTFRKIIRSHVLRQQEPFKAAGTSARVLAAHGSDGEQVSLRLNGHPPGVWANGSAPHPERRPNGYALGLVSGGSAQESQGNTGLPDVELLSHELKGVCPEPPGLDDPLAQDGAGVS
# protocol.summary: Adenosine A2A Receptor Functional Assay (A2A GAL2)
# experimental.setup: CHO-K1 cells overexpressing human A2A receptor, cAMP inducible beta-galactosidase reporter, 15 nM NECA agonist challenge; read-out: A2AGal2
recorded.metric: IC50 (nM)

Consider the reported IC50 for these compounds:
Indicate the recorded IC50 value for this compound: C=CCN1CCN(c2cccc3c2-c2nc(N)nc(-c4ccccc4)c2C3=O)CC1 12.5

Indicate the recorded IC50 value for this compound: CC(=O)C1(c2ccccc2)CCN(c2cccc3c2-c2nc(N)nc(-c4ccccc4)c2C3=O)CC1 4.2

(a) Nc1nc(-c2ccccc2)c2c(n1)-c1c(cccc1N1CCN(c3ccccc3F)CC1)C2=O
(b) N#Cc1ccccc1N1CCN(c2cccc3c2-c2nc(N)nc(-c4ccccc4)c2C3=O)CC1
// which entry has the larger IC50 value, a or b ? In your reply, give the label of the chosen option. b

* * *

# target: human adenosine A2A receptor (Homo sapiens, UniProt P29274)
# protocol.summary: Adenosine A2A Receptor Functional Assay (A2A GAL2)
# experimental.setup: CHO-K1 cells overexpressing human A2A receptor, cAMP inducible beta-galactosidase reporter, 15 nM NECA agonist challenge; read-out: A2AGal2
pIC50: −log10 of the molar value.
recorded.metric: pIC50

Consider the reported pIC50 for these compounds:
# return pIC50 for Nc1nc(-c2ccccc2)c2c(n1)-c1c(cccc1N1CCN(c3cccnc3)CC1)C2=O , test system: human adenosine A2A receptor (Homo sapiens, UniProt P29274) 9.22

# return pIC50 for COCCOc1ccc(N2CCN(c3cccc4c3-c3nc(N)nc(-c5ccccc5)c3C4=O)CC2)c(F)c1 , test system: human adenosine A2A receptor (Homo sapiens, UniProt P29274) 9.31

# return pIC50 for COCCOc1ccc(N2CCN(c3cccc4c3-c3nc(N)nc(-c5ccccc5)c3C4=O)CC2)cc1 , test system: human adenosine A2A receptor (Homo sapiens, UniProt P29274) 9.44

(P) CS(=O)(=O)c1ccc(N2CCN(c3cccc4c3-c3nc(N)nc(-c5ccccc5)c3C4=O)CC2)cc1
(Q) Nc1nc(-c2ccccc2)c2c(n1)-c1c(cccc1N1CCC(N3CCOCC3)CC1)C2=O
// which entry has the larger pIC50 value, P or Q ? In your reply, give the label of the chosen option. P
(P: 9.36, Q: 8.33)

* * *

# target: human adenosine A2A receptor (Homo sapiens)
# Construct: expressed in transfected cells; host or cells: CHO-K1 cells with a cAMP inducible beta-galactosidase reporter gene
# protocol.summary: Adenosine A2A Receptor Functional Assay (A2A GAL2)
# Assay type: cell-based
# experimental.setup: ratio of A1Gal2 to A2AGal2 values
recorded.metric: A1/A2A

Indicate the recorded A1/A2A value for this molecule: N#Cc1cccnc1N1CCN(c2cccc3c2-c2nc(N)nc(-c4ccccc4)c2C3=O)CC1 [Example 14] 437.5

Indicate the recorded A1/A2A value for this molecule: N#Cc1ccc(N2CCN(c3cccc4c3-c3nc(N)nc(-c5ccccc5)c3C4=O)CC2)nc1 [Example 8] 777.778

Indicate the recorded A1/A2A value for this molecule: N#Cc1ccccc1N1CCN(c2cccc3c2-c2nc(N)nc(-c4ccccc4)c2C3=O)CC1 [Example 7] 1074.07

Indicate the recorded A1/A2A value for this molecule: C=CCN1CCN(c2cccc3c2-c2nc(N)nc(-c4ccccc4)c2C3=O)CC1 [Example 23] 60.0758

Indicate the recorded A1/A2A value for this molecule: NC(=O)c1ccc(C2CCN(c3cccc4c3-c3nc(N)nc(-c5ccccc5)c3C4=O)CC2)cc1 [Example 20] 100

Indicate the recorded A1/A2A value for this molecule: COc1ccc(N2CCN(c3cccc4c3-c3nc(N)nc(-c5ccccc5)c3C4=O)CC2)cc1 [Example 16] 178.571

(A) COc1ccc(C2CCN(c3cccc4c3-c3nc(N)nc(-c5ccccc5)c3C4=O)CC2)cc1 [Example 18]
(B) Nc1nc(-c2ccccc2)c2c(n1)-c1c(cccc1N1CCN(CC3CC3)CC1)C2=O [Example 22]
(C) N#Cc1ccc(N2CCN(c3cccc4c3-c3nc(N)nc(-c5ccccc5)c3C4=O)CC2)cc1 [Example 3]
(D) Nc1nc(-c2ccccc2)c2c(n1)-c1c(cccc1N1CCN(c3cccnc3)CC1)C2=O [Example 26]
List items by A1/A2A in falling order. In plain terms: list the labels in the order you were asked to. C, A, B, D

* * *

# target: human adenosine A1 receptor (Homo sapiens, UniProt P30542)
# Sequence (P30542 whole entry): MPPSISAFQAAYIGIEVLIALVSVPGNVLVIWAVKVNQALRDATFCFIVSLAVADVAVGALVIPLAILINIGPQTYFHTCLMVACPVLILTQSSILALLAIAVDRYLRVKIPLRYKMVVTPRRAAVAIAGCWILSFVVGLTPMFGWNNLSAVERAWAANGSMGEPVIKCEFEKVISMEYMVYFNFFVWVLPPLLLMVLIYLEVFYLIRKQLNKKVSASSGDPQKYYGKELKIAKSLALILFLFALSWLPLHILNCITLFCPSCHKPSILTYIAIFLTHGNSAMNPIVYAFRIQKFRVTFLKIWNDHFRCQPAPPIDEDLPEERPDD
# protocol.summary: Adenosine A1 Receptor Functional Assay (A1GAL2)
# experimental.setup: CHO-K1 cells overexpressing human A1 receptor, cAMP inducible beta-galactosidase reporter, 4 nM r-PIA/1 uM Forskolin agonist challenge
recorded.metric: IC50 (nM)

Indicate the recorded IC50 value for this molecule: Nc1nc(-c2ccccc2)c2c(n1)-c1c(cccc1N1CCC(O)(c3ccccc3)CC1)C2=O [Example 13] 310

Indicate the recorded IC50 value for this molecule: CS(=O)(=O)c1ccc(N2CCN(c3cccc4c3-c3nc(N)nc(-c5ccccc5)c3C4=O)CC2)cc1 [Example 15] 100

(1) Nc1nc(-c2ccccc2)c2c(n1)-c1c(cccc1N1CCN(c3ccccc3F)CC1)C2=O [Example 4]
(2) C=CCN1CCN(c2cccc3c2-c2nc(N)nc(-c4ccccc4)c2C3=O)CC1 [Example 23]
// which entry has the larger IC50 value, 1 or 2 ? In your reply, give the label of the chosen option. 1
(1: 1900 nM, 2: 748 nM)

* * *

# target: human adenosine A2A receptor (Homo sapiens, UniProt P29274)
# Construct: expressed in transfected cells; host or cells: CHO-K1 cells with a cAMP inducible beta-galactosidase reporter gene
# protocol.summary: Adenosine A2A Receptor Functional Assay (A2A GAL2)
# Assay type: cell-based
# experimental.setup: ratio of A1Gal2 to A2AGal2 values
# Description: Adenosine A2A Receptor Functional Assay (A2A GAL2) To initiate the functional assay, cryopreserved CHO—K1 cells overexpressing the human adenosine A2A receptor and containing a cAMP inducible beta-galactosidase reporter gene were thawed, centrifuged, DMSO containing media removed, and then seeded with fresh culture media into clear 384-well tissue culture treated plates (BD #353961) at a concentration of 10K cells/well. […]
recorded.metric: A1/A2A

Consider the reported A1/A2A for these compounds:
Indicate the recorded A1/A2A value for this compound: Nc1nc(-c2ccccc2)c2c(n1)-c1c(cccc1N1CCN(c3ncccc3F)CC1)C2=O 730.769

Indicate the recorded A1/A2A value for this compound: Nc1nc(-c2ccccc2)c2c(n1)-c1c(cccc1N1CCN(c3ccccn3)CC1)C2=O 142.857

(A) CC(=O)c1ccc(N2CCN(c3cccc4c3-c3nc(N)nc(-c5ccccc5)c3C4=O)CC2)cc1
(B) Nc1nc(-c2ccccc2)c2c(n1)-c1c(cccc1N1CCN(c3ccccc3F)CC1)C2=O
Hey, between A and B which has a smaller measured A1/A2A? In your reply, give the label of the chosen option. B
(B: 1583.33, A: 20250)

* * *

# target: human adenosine A1 receptor (Homo sapiens)
# protocol.summary: Adenosine A1 Receptor Functional Assay (A1GAL2)
# experimental.setup: CHO-K1 cells overexpressing human A1 receptor, cAMP inducible beta-galactosidase reporter, 4 nM r-PIA/1 uM Forskolin agonist challenge
pIC50: −log10 of the molar value.
recorded.metric: pIC50

(P) Nc1nc(-c2ccccc2)c2c(n1)-c1c(cccc1N1CCN(c3ncccc3F)CC1)C2=O [Example 10]
(Q) Nc1nc(-c2ccccc2)c2c(n1)-c1c(cccc1N1CCN(CCc3ccccc3)CC1)C2=O [Example 12]
(R) Nc1nc(-c2ccccc2)c2c(n1)-c1c(cccc1N1CCN(c3ccc(Cl)cc3)CC1)C2=O [Example 21]
(S) COc1ccc(N2CCN(c3cccc4c3-c3nc(N)nc(-c5ccccc5)c3C4=O)CC2)cc1 [Example 16]
(T) CC(=O)c1ccc(N2CCN(c3cccc4c3-c3nc(N)nc(-c5ccccc5)c3C4=O)CC2)cc1 [Example 1]
Sort the entries above by pIC50, largest first. In plain terms: list the labels in the order you were asked to. S, R, Q, P, T

(I) Nc1nc(-c2ccccc2)c2c(n1)-c1c(cccc1N1CCN(c3ccc(F)cc3F)CC1)C2=O [Example 6]
(II) NC(=O)c1ccc(C2CCN(c3cccc4c3-c3nc(N)nc(-c5ccccc5)c3C4=O)CC2)cc1 [Example 20]
(III) CCCN1CCN(c2cccc3c2-c2nc(N)nc(-c4ccccc4)c2C3=O)CC1 [Example 19]
(IV) Nc1nc(-c2ccccc2)c2c(n1)-c1c(cccc1N1CCN(c3ccc(F)cn3)CC1)C2=O [Example 2]
(V) COc1ccc(C2CCN(c3cccc4c3-c3nc(N)nc(-c5ccccc5)c3C4=O)CC2)cc1 [Example 18]
Arrange the 5 entries by pIC50 so the values rise. In plain terms: list the labels in the order you were asked to. IV, I, III, V, II
(IV: 5.02, I: 5.54, III: 5.96, V: 6.22, II: 6.82)
